Provide the recorded pIC50 for the entries that follow.
tested on: LN229 cells; experiment: Cell viability assay, LN229 cells; format: cell-based, human; details: LN229 cells, read-out: Inhibition of Cancer Cell Growth (IC50)
pIC50: −log10 of the molar value.

Each compound below has a reported value. Please supply its pIC50.
1. O=C(Nc1ccc(Cl)cc1)Nc1nc2ccc([N+](=O)[O-])cc2s1 [Compound 18]
2. CCc1ccc(NC(=O)Nc2nc3ccc(C#N)cc3s2)cc1
3. O=C(Nc1cccc(Cl)c1)Nc1nc2ccc([N+](=O)[O-])cc2s1 [Compound 3]
4. N#Cc1ccc2nc(NC(=O)Nc3cccc(OCCOCCN)c3)sc2c1
5. O=C(Nc1ccc(Cl)cc1)Nc1nc2ccc([N+](=O)[O-])cc2s1 [Compound 5]

A)
1: < 4.70; 2: ≥ 5.30; 3: ≥ 5.30; 4: < 4.70; 5: ≥ 5.30

Each compound below has a reported value. Please supply its pIC50.
1. CC(C)(C)OC(=O)NCCOCCOc1cccc(NC(=O)Nc2nc3ccc(C#N)cc3s2)c1
2. O=C(Nc1cccc(Cl)c1)Nc1nc2ccc([N+](=O)[O-])cc2s1 [Compound 19]

A)
≥ 5.30
< 4.70
